System: IGROV1 ovarian
Test: NCI tumour cell line growth inhibition, 48 h
Observed Property: TGI (µM)
// return numeric value only (unit: µM, not printed)

Before answering, review these 3 worked examples.
1. Oc1ccccc1N=Cc1c(O)ccc2ccccc12 = 26.1
2. C/C=C(\C)C(=O)O[C@H]1C=CC(=O)O[C@H]1CC[C@H](O)[C@H](C)O = 19
3. O=C1c2ccccc2C(=O)c2c1ccc(C(Br)Br)c2Cl = 3.89

Sure, the documented TGI for CC(C)(C)c1cc(Cc2ccc([N+](C)(C)C)cc2)c(O)c(C(C)(C)C)c1 is 28.1

====

Tested on: HT29 colon
Test: NCI tumour cell line growth inhibition, 48 h
Observed Property: TGI

1. O=C(O)CSc1ccc2[nH]c3ccccc3c(=O)c2c1 = > 100 µM

Sure, the documented TGI for O=C1c2ccccc2C2=Cc3ccccc3C(O)N12 (stereo unspecified) is > 100 µM

Sure, the documented TGI for COC(=O)C(CCC1C=CN(S(=O)(=O)c2ccc(C)cc2)C1)N=Cc1ccccc1 (stereo unspecified) is > 100 µM

Sure, the documented TGI for CCc1nnc(CC)n1-n1c(Cc2ccccc2)n[nH]c1=O is > 100 µM

Recorded values, source PubChem BioAssay (NCI).
